assay: CHI Log D procedure; assay type: physicochemical; settings: pH 7.4
Catalogue of molecules with associated CHI Log D
Reply with just the number.

CCN(CC(=O)O)C[C@@H]1NC(=O)[C@H](CC(=O)O)NC(=O)C2(CCCC=CCCCOC(=O)N3CC[C@@](C(=O)N[C@@H](Cc4ccsc4)C(=O)N[C@@H](Cc4csc5ccccc45)C(=O)N[C@@H](CCC(N)=O)C(N)=O)(C3)NC(=O)[C@H](CO)NC(=O)[C@H](Cc3ccccc3)NC(=O)[C@H](C)NC(=O)[C@H](C)NC1=O)CCCC=CC[C@]1(CCCN1C(C)=O)C(=O)N[C@@H](CC(=O)O)C(=O)N[C@@H](CC(C)(C)C)C(=O)N2 (stereo partly drawn) [I-966]; 1.791
CCCC[C@@H]1NC(=O)[C@H](CC(=O)O)NC(=O)[C@](C)(NC(=O)[C@H](C)NC(=O)[C@H](CC(=O)O)NC(=O)[C@H](Cc2ccccc2)NC(C)=O)CCCCCCC=CCOC(=O)N2CC[C@@](C(=O)N[C@@H](Cc3ccccc3)C(=O)N[C@@H](Cc3c[nH]c4ccccc34)C(=O)N[C@@H](CCC(N)=O)C(N)=O)(C2)NC(=O)[C@H](C(C)C)NC(=O)[C@H](Cc2ccccc2)NC(=O)[C@H](C)NC(=O)[C@H](C)NC1=O [I-14]; 2.013

Next molecule, please.
Any idea what its CHI Log D is? The molecule is CC(=O)N1CCC[C@]12CC=CCCCC1(CCCC=CCCCCCC[C@@](C)(C(=O)N[C@@H](Cc3cn(C)cn3)C(=O)N[C@@H](Cc3csc4ccccc34)C(=O)N[C@@H](CCC(N)=O)C(N)=O)NC(=O)[C@H](CC(N)=O)NC(=O)[C@H](Cc3ccccc3)NC(=O)[C@H](C)NC(=O)[C@H](C)NC(=O)[C@H](CCC(=O)O)NC(=O)[C@H](CC(=O)O)NC1=O)NC(=O)[C@H](C)NC(=O)[C@H](CC(=O)O)NC2=O (stereo partly drawn) [I-439]
1.408
